TGT: UPR counterscreen luciferase reporter, luminescence
EXPERIMENT SUMMARY: luciferase reporter activation, UPR counterscreen line – cell-based, luminescence, counter-screen for adaptive UPR activator project, dose response (AID 489027)
The source made the active and inactive calls. The rule behind the calls is not given here.
Outcomes: active, inactive

MOLECULE: COC(=O)c1c(NC(=O)CC2Nc3ccccc3NC2=O)sc(C)c1C (centres undefined)
CLASS ASSIGNMENT: inactive
//
MOLECULE: Cc1cc(NC(=O)/C(C#N)=C/c2ccc(-c3ccc(SC(F)F)cc3)o2)n(-c2ccccc2)n1
CLASS ASSIGNMENT: inactive
//
MOLECULE: Cc1cc(C)cc(NC(=O)/C(C#N)=C/c2cn(CC(=O)NCc3ccco3)c3ccccc23)c1
CLASS ASSIGNMENT: active
//
MOLECULE: COc1cc(/C=C2\CC(C(C)(C)C)C/C(=C\c3cc(OC)c(OC)c(OC)c3)C2=O)cc(OC)c1OC (centres undefined)
CLASS ASSIGNMENT: active
//
MOLECULE: CCCCCc1nc2c(c(=O)c3ccccc3n2C)c(=O)n1C1CCCCCC1
CLASS ASSIGNMENT: active
//
MOLECULE: CCc1ccc(-n2c(SCC(=O)c3ccc4c(c3)NC(=O)CO4)nc3ccccc3c2=O)cc1
CLASS ASSIGNMENT: active
//
MOLECULE: CCOc1cccc(C(=O)Nc2cccc(-c3nnc(-c4ccc(C)cc4)o3)c2)c1
CLASS ASSIGNMENT: active
//
MOLECULE: CCOC(=O)N1CCN(S(=O)(=O)c2ccc(C(=O)Nc3nc4c(s3)CC(C)CC4)cc2)CC1 (centres undefined)
CLASS ASSIGNMENT: active
//
MOLECULE: Cc1cc(NC(=O)c2cc(-c3ccccn3)nc3ccc(Br)cc23)no1
CLASS ASSIGNMENT: inactive
//
MOLECULE: NS(=O)(=O)c1ccc(N=Cc2c(O)n(C3CCCCC3)c(=O)n(C3CCCCC3)c2=O)cc1
CLASS ASSIGNMENT: active
//
MOLECULE: O=C(COC(=O)/C=C/c1cn(-c2ccccc2)nc1-c1cccnc1)Nc1ccc(Cl)cc1Cl
CLASS ASSIGNMENT: active
//
MOLECULE: CC1CCCN(c2ccc(C(=O)NCc3cccs3)cn2)C1 (centres undefined)
CLASS ASSIGNMENT: inactive
//
MOLECULE: CCCCN(CC)S(=O)(=O)c1ccc(C(=O)N(CCCN(C)C)c2nc3cc(C)cc(C)c3s2)cc1
CLASS ASSIGNMENT: active
//
MOLECULE: COc1ccc(-c2ccc(C#N)c(SCC(=O)Nc3sc4c(c3C#N)CCC4)n2)cc1OC
CLASS ASSIGNMENT: inactive
//
MOLECULE: COc1ccc(-c2csc(C3=C(O)CN(Cc4ccc(Cl)cc4)C3=N)n2)cc1OC
CLASS ASSIGNMENT: inactive
//
MOLECULE: N#Cc1ccc(N/N=C/c2cn(-c3ccccc3)nc2-c2ccccc2)c([N+](=O)[O-])c1
CLASS ASSIGNMENT: inactive
//
MOLECULE: CCCCCC(=O)Nc1ccc(C(=O)N/N=C/c2ccc([N+](=O)[O-])cc2)cc1
CLASS ASSIGNMENT: inactive
//
MOLECULE: CCc1ccc(NC(=O)C(CC)Sc2nc3cc4c(cc3c(=O)n2Cc2ccco2)OCO4)cc1 (centres undefined)
CLASS ASSIGNMENT: inactive
//
MOLECULE: CCC(=O)Nc1cccc(C(=O)/C=C/c2ccc(F)cc2)c1
CLASS ASSIGNMENT: active
